- Experimental Target: FAAH Human recombinant (Homo sapiens, UniProt O00519)
- Sequence (O00519 1-579): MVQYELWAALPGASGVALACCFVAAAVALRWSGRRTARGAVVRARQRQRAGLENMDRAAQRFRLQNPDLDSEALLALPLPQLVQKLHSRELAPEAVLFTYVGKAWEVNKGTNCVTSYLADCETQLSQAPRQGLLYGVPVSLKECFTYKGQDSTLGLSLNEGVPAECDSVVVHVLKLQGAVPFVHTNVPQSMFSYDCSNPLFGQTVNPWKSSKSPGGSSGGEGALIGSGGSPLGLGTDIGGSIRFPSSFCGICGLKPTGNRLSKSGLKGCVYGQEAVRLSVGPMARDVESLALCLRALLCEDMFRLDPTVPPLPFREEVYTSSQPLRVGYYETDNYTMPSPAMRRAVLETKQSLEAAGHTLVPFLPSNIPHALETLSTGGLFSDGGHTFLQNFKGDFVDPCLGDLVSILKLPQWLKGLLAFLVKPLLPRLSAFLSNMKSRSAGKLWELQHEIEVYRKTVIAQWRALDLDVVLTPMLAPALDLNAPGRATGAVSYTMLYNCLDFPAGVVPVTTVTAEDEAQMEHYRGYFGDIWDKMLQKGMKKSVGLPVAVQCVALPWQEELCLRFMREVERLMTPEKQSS
- Measurement Notes: FAAH inhibition assay (fluorometric, AMC-AA substrate)
- Conditions Used: human recombinant FAAH; mean ± SEM; i: inactive
Parameter: IC50 (µM)

Some compounds with known IC50 results, for comparison:
O=C(Oc1ccc([N+](=O)[O-])cc1)N1CCN(Cc2cccc(Oc3ccccc3)c2)CC1 [JZL195, reference compound] | 0.019
O=C(O)C(Cc1ccccc1)Oc1ccc(/C=C/c2ccccc2)cc1 (centres unmarked) [Compound 18] | 24

(A) CCCCCCCN(CCc1ccc(OCC(=O)O)cc1)c1nc2ccccc2o1 [Compound 8]
(B) O=C(C=Cc1ccc(O)c(O)c1)N[C@@H](Cc1ccccc1)C(=O)O [Compound 33]
// select label with min value of measured IC50 from [ A , B ] When you have decided, please share the label of that item.
B

---

- Experimental Target: human PPARα (Homo sapiens, UniProt Q07869)
- Sequence (Q07869 239-466 limits assumed): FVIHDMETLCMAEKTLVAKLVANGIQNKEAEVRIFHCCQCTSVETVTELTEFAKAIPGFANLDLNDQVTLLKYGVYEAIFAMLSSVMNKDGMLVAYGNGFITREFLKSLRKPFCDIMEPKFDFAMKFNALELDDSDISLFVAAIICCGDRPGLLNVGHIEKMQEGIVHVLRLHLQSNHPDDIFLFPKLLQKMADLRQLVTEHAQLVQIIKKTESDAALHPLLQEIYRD
- Measurement Notes: GAL4-PPARα-LBD transactivation (luciferase) assay in HepG2 cells
- Conditions Used: HepG2, read-out: PPARα Emax
Parameter: Emax (%)

Examples from the recorded data:
O=C(/C=C/c1ccccc1)O[C@@H](Cc1ccccc1)C(=O)O [(S)-28] | 34
CC(Oc1ccc(CCc2ccccc2)cc1)C(=O)O (racemic) | 116

(1) CC(Oc1ccc(Cc2ccccc2)cc1)C(=O)O (racemic) [Compound 13, (R,S)-2-(4-benzyl)-phenoxypropanoic acid]
(2) O=C(O)COc1ccc(Cc2ccccc2)cc1
1 or 2 : whose Emax is greater? Refer to your chosen entry by its label in the reply.
1
(1: 116%, 2: 34%)
